Known inhibition in vivo at 10 mg/kg of a selection of compounds
Tested on: normal mice
Test: Single oral glucose tolerance test on normal mice
Assay type: in vivo
Settings: Mus musculus, 0.5 h, read-out: Reduction rate of blood glucose level (%)
Field format: number, assumed %, no unit text.

Previously resolved entries follow.
{"columns": ["COMPOUND", "REPORTED_PROPERTY", "QUANTITATIVE_READOUT"],
 "data": [
  ["Cc1cc(OC[C@H](O)CO)cc(C)c1-c1cccc(CNc2ccc(Cn3oc(=O)[n-]c3=O)cc2)c1C.[Na+] [Example 69]", "inhibition in vivo at 10 mg/kg", 34],
  ["Cc1cc(OCC[C@H](O)CO)cc(C)c1-c1cccc(CNc2ccc(Cn3oc(=O)[n-]c3=O)cc2)c1C.[Na+] [Example 102]", "inhibition in vivo at 10 mg/kg", 48],
  ["Cc1cc(-c2cccc(CNc3ccc(Cn4oc(=O)[n-]c4=O)cc3)c2C)c(C)nc1OCCO.[Na+] [Example 89]", "inhibition in vivo at 10 mg/kg", 25],
  ["Cc1cc(-c2cccc(COc3ccc(Cn4oc(=O)[n-]c4=O)cc3)c2C)c(C)cc1OCCC(C)(C)O.[Na+] [Example 31]", "inhibition in vivo at 10 mg/kg", 50],
  ["Cc1cc(OC[C@H](O)CO)cc(C)c1-c1cccc(COc2ccc(Cn3oc(=O)[n-]c3=O)cc2)c1C.[Na+] [Example 26]", "inhibition in vivo at 10 mg/kg", 27]
]}

Quick check: inhibition in vivo at 10 mg/kg of Cc1cc(OCCC(C)(C)O)nc(C)c1-c1cccc(COc2ccc(Cn3oc(=O)[n-]c3=O)cc2)c1C.[Na+] [Example 60] ?
45

If you can, please state the reported inhibition in vivo at 10 mg/kg value of Cc1cc(OCC[C@@H](C)O)nc(C)c1-c1cccc(CNc2ccc(Cn3oc(=O)[n-]c3=O)cc2)c1C.[Na+] [Example 81] .
33

---

The entries below come with measured inhibition in vivo at 10 mg/kg values attached.
System: normal mice
Experiment: Single oral glucose tolerance test on normal mice
Format: in vivo
Conditions: Mus musculus, 0.5 h, read-out: Reduction rate of blood glucose level (%)
Quick note: unit goes after the number.

Completed entries (count: 5):
{"columns": ["STRUCTURE_SMILES_STRING", "RESULT"],
 "data": [
  ["Cc1cc(OC[C@@H](O)CO)cc(C)c1-c1cccc(CNc2ccc(Cn3oc(=O)[n-]c3=O)cc2)c1C.[Na+]", "23%"],
  ["Cc1cc(OCC[C@@H](O)CO)cc(C)c1-c1cccc(CNc2ccc(Cn3oc(=O)[n-]c3=O)cc2)c1C.[Na+]", "39%"],
  ["Cc1cc(OCCO)c(F)cc1-c1cccc(CNc2ccc(Cn3oc(=O)[n-]c3=O)cc2)c1C.[Na+]", "24%"],
  ["Cc1cc(OCC[C@H](C)O)cc(C)c1-c1cccc(COc2ccc(Cn3oc(=O)[n-]c3=O)cn2)c1C.[Na+]", "35%"],
  ["Cc1cc(-c2cccc(CNc3ccc(Cn4oc(=O)[n-]c4=O)cc3)c2C)c(C)cc1OC[C@@H](O)CO.[Na+]", "23%"]
]}

Please look up its inhibition in vivo at 10 mg/kg: `Cc1cc(OC[C@@H](O)CO)cc(C)c1-c1cccc(COc2ccc(Cn3oc(=O)[n-]c3=O)cc2)c1C.[Na+]`
30%

# input compound: `Cc1c(COc2ccc(Cn3oc(=O)[n-]c3=O)cc2)cccc1-c1ccc(OCCC(C)(C)O)c(C)c1C.[Na+]` ; wanted: its inhibition in vivo at 10 mg/kg
47%
